Form field: ERα % of Max E2 Response (one value per entry).
Target: ligand binding domain of the estrogen receptor alpha chain (ERαLBD) (Homo sapiens)
Construct: expressed in transfected cells; host or cells: Huh-7 human hepatoma cells, transient transfection with FuGENE 6
Sequence (P03372 311-547 limits assumed): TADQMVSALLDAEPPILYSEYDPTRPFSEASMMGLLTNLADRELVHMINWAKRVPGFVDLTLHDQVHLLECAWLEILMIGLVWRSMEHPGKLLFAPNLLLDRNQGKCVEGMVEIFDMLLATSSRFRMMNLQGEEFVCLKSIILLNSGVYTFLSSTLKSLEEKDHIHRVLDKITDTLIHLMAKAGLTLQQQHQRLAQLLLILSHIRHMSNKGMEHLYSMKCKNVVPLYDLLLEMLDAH
Test: ER agonist cell assay (ERα), Huh-7 co-transfection, luciferase
Format: cell-based
Settings: percent of the maximum estradiol fold change; Huh-7, pG5luc and ERαLBD
Report only the number, with the unit % understood.

molecule: Oc1ccc(-c2noc(C3(C(O)C4CC4)CC3)c2-c2ccccc2)cc1 (racemic)
reportedResult: 45.4

Input line: Return ERα % of Max E2 Response (reported value) for this molecule: `O=C(OCC1CCC1)C1(c2onc(-c3ccc(O)cc3)c2-c2ccccc2)CC1`
Output line: 21.5

Input line: Return ERα % of Max E2 Response (reported value) for this molecule: CCC(NCC1(c2onc(-c3ccc(O)cc3)c2-c2ccccc2)CC1)c1ccccc1 (racemic)
Output line: 18.2

Input line: Return ERα % of Max E2 Response (reported value) for this molecule: `CC(C)COC(=O)C1(c2onc(-c3ccc(O)cc3)c2-c2ccccc2)CC1`
Output line: 23.3
